# system tested: human CD40 on cells (B cells, MDDCs, stably transfected CHO cells) (human, UniProt P25942 21-277)
# Sequence (P25942 21-277): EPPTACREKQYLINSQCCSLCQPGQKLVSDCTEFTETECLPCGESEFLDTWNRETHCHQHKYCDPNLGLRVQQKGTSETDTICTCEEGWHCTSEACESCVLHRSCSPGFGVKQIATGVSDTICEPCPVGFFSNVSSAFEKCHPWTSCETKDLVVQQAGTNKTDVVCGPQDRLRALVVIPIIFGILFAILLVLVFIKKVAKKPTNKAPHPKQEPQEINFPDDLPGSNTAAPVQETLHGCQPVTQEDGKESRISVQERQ
# assay info: cell-based or functional assay
measurement type: EC50/EC50 CP, MDDC cytokine secretion

binder: anti-CD40 12B4 human IgG4 antibody (antibody, V domains shown, also called mAb3 [12B4]) VH: EVQLQQSGPELVKPGASVKMSCKASGYTFTDYVLHWVKQKPGQGLEWIGYINPYNDGTKYNEKFKGKATLTSDKSSSTAYMELSSLTSEDSAVYYCARGYPAYSGYAMDYWGQGTSVTVSS VL: DIQMTQTTSSLSASLGDRVTISCRASQDISNYLNWYQQKPDGTVKLLIYYTSRLHSGVPSRFSGSGSGTDYSLTISNLEQEDIATYFCHHGNTLPWTFGGGTK
EC50/EC50 CP, MDDC cytokine secretion: ≥ 100 ratio

binder: anti-CD40 24A3 human IgG4 antibody (antibody, V domains shown, also called mAb4 [24A3]) VH: DVQLQESGPDLVKPSQSLSLTCTVTGYSITSDYSWHWIRQFPGNKLEWMGYIYYSGSTNYNPSLKSRISITRDTSKNQFFLQLNSVTTEDSATYFCARFYYGYSFFDYWGQGTTLTVSS VL: QIVLTQSPAFMSASPGEKVTMTCSASSSVSYMHWYQQKSGTSPKRWIYDTSKLASGVPARFSGSGSGTSYSLTISSMEAEDAATYYCQQWSSNPLTFGAGTK
EC50/EC50 CP, MDDC cytokine secretion: > 1000 ratio

binder: anti-CD40 12E12 human IgG4 antibody (antibody, V domains shown, also called mAb6 [12E12]; anti-CD40 12E12 IgG4) VH: EVQLVESGGGLVQPGGSLKLSCATSGFTFSDYYMYWVRQAPGKGLEWVAYINSGGGSTYYPDTVKGRFTISRDNAKNTLYLQMNSLRAEDTAVYYCARRGLPFHAMDYWGQGTLVTVSS VL: DIQMTQSPSSLSASVGDRVTITCSASQGISNYLNWYQQKPGKAVKLLIYYTSILHSGVPSRFSGSGSGTDYTLTISSLQPEDFATYYCQQFNKLPPTFGGGTK
EC50/EC50 CP, MDDC cytokine secretion: > 1000 ratio

// sample anti-CD40 11B6 human IgG4 antibody (antibody, V domains shown, also called mAb1 [11B6 VH/VkV2]; PAB3405) VH: EVQLVQSGAEVKKPGASVKISCKASGYSFTGYYMHWVKQAHGQGLEWIGRINPYNGATSYNQNFKDRATLTVDKSTSTAYMELSSLRSEDTAVYYCAREDYVYWGQGTTVTVSS VL: DVVMTQSPLSLPVTLGQPASISCRSSQSLVHSNGNTYLHWYQQRPGQSPRLLIYKVSNRFSGVPDRFSGSGSGTDFTLKISRVEAEDVGVYFCSQSTHVPWTFGGGTKLEIKR , its EC50/EC50 CP, MDDC cytokine secretion was > 1000 ratio
